Recorded values, source patent US8394796B2.

# TARGET_SYSTEM: p110δ/p85α (PI3K p110 delta) (Homo sapiens, UniProt O00329)
# Construct: purchased Upstate Group, Millipore; Dundee, UK
# Sequence (O00329 whole entry): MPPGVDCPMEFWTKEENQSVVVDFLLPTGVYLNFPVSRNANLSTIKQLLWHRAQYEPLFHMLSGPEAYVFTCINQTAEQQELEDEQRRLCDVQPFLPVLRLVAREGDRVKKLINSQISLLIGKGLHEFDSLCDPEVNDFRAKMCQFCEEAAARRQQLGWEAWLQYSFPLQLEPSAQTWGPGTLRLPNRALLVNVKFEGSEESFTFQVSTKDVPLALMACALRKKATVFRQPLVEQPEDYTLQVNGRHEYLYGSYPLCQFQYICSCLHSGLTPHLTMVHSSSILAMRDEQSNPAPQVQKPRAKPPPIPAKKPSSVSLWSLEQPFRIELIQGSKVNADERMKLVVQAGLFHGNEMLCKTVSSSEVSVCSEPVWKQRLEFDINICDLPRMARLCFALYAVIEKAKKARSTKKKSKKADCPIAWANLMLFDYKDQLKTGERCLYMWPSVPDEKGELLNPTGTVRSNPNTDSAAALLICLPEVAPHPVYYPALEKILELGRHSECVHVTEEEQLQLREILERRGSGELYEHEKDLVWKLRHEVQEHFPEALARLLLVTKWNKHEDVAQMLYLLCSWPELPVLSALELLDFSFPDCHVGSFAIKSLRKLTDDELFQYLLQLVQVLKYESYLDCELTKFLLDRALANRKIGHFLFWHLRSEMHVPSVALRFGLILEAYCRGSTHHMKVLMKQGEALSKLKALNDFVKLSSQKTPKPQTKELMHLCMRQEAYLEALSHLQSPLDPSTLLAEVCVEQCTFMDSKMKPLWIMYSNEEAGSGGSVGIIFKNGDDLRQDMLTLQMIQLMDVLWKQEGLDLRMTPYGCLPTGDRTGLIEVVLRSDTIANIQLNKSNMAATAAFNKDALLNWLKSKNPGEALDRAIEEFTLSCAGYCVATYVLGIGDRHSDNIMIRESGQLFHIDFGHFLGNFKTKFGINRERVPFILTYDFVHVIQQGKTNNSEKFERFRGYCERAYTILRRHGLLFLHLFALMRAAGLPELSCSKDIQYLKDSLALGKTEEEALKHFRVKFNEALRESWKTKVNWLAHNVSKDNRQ
# Sequence (P27986 whole entry partner): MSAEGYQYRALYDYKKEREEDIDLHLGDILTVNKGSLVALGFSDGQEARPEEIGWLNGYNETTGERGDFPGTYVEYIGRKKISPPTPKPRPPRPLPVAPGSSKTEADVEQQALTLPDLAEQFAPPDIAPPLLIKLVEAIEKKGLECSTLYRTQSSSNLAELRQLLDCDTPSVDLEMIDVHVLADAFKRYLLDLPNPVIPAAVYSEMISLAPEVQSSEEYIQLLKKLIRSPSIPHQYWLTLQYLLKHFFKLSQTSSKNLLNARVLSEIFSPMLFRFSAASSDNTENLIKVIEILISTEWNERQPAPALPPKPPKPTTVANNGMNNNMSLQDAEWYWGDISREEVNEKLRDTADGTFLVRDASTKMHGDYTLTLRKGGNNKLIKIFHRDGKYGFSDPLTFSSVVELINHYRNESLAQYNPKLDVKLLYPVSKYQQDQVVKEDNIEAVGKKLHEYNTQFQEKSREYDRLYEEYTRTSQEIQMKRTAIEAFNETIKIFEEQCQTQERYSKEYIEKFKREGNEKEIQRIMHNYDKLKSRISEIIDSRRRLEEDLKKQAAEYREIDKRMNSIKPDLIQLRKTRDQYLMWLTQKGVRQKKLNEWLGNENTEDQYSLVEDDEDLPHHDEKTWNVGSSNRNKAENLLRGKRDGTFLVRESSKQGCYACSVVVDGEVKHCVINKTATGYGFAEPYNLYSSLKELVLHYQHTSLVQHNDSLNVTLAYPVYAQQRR
# ASSAY_EXPLANATION: PI3K isoform inhibition assay (fluorescence polarization PIP3 displacement; alternatively radiometric), p110 delta
# Format: biochemical
# PROTOCOL_CONDITIONS: delta/alpha selectivity: ratio of p110 alpha IC50 to p110 delta IC50
MEASURED_QUANTITY: IC50 p110 alpha/IC50 p110 delta
// response body must contain only the number

Illustrative cases are given below, each with its answer.
SMILES	TARGET_SYSTEM	IC50 p110 alpha/IC50 p110 delta
Cn1c(CN2CCC(C(C)(C)O)CC2)nc2c(N3CCOCC3)nc(-c3cnc(N)c4ccccc34)nc21	p110δ/p85α (PI3K p110 delta) (Homo sapiens, UniProt O00329)	34
Cn1c(CN2CCC(C(C)(C)O)CC2)nc2c(N3CCOCC3)nc(-c3n[nH]c4ccccc34)nc21	p110δ/p85α (PI3K p110 delta) (Homo sapiens, UniProt O00329)	191
CCc1nc2ccccc2n1-c1nc(N2CCOCC2)c2nc(CN3CCN(C(C)(C)CO)CC3)[nH]c2n1	p110δ/p85α (PI3K p110 delta) (Homo sapiens, UniProt O00329)	157

Now consider a different molecule.
IC50 p110 alpha/IC50 p110 delta for CN(C)C1CCN(Cc2cc3nc(-n4ccc5cnccc54)nc(N4CCOCC4)c3s2)CC1 is 30
